- tested target: MGL (Rattus norvegicus, UniProt Q8R431)
- Construct: one g rat brain was homogenized using a Polytron homogenizer; from tissue; host or cells: rat brain homogenate
- Sequence (Q8R431 whole entry): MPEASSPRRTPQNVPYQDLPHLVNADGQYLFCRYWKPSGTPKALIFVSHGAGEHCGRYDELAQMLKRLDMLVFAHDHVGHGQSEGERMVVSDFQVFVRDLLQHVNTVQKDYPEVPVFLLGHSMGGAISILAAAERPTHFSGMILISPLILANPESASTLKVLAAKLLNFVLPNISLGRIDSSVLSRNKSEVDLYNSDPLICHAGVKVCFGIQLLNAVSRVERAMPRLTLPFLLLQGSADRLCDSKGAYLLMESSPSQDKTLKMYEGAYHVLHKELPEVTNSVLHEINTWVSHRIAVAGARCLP
- assay summary: 2-AG accumulation assay in rat brain homogenate
- Assay type: biochemical
- condition context: rat brain homogenate; compound 1 μM; 2-AG accumulation as percent of vehicle; read-out: Rat Brain 2AG % VehCntrl (%) @ 1 μM
Property: 2-AG accumulation, % of vehicle control at 1 µM; scope: individual molecules
Note: unit % is implicit; provide only the numeric part.

{"structure notation": "O=C(c1ccc2c(c1)CCCN2C(=O)C1CCC1)N1CC(N2CCN(C(=O)c3nccs3)CC2)C1", "measurement": 581}
{"structure notation": "Cc1cc(C(=O)N2CC(N3CCN(C(=O)c4cscn4)CC3)C2)ccc1-c1ccc(F)c(Cl)c1", "measurement": 285}
{"structure notation": "O=C(/C=C/c1ccc(SC(F)(F)F)cc1)N1CC(N2CCN(C(=O)c3cscn3)CC2)C1", "measurement": 126}

Here is another molecule to look at.
Problem: // Input: `O=C(c1ccccc1)N1CCN(C2CN(C(=O)c3ccc4c(-c5cccc(C(F)(F)F)c5)c[nH]c4c3)C2)CC1` . Output its 2-AG accumulation, % of vehicle control at 1 µM only.
Result: 397
